target: RORγt (Mus musculus, UniProt P51450, T352K); test: RORγt S2 cell Gal4-luciferase reporter assay; conditions: read-out: Efficacy (%)
Sequence (P51450 with tags, fused parts or gaps T352K): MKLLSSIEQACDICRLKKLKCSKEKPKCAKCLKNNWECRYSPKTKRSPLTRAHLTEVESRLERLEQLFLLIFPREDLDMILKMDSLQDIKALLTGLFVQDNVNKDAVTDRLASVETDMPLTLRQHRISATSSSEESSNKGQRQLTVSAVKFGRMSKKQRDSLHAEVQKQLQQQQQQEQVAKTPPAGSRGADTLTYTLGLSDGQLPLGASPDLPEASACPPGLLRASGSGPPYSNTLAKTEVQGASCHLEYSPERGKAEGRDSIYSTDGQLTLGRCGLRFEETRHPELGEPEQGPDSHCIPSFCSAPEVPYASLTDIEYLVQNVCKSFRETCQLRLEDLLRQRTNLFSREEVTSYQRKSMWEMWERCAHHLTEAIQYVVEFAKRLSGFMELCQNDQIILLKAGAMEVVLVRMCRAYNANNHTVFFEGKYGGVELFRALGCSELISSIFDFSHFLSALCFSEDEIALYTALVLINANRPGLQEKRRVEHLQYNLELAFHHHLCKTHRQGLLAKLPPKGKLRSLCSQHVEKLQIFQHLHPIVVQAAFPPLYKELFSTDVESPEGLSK
I'd appreciate it if you could supply Emax values for the items below.

Recorded result, COc1cc(O)c(C(CC(=O)N2CCCCC2)c2ccc3c(c2)OCO3)c(OC)c1 (stereo not shown) , Emax: 90.4%

Recorded result, COc1cc(O)c(C(CC(=O)N2CCc3ccccc3C2)c2ccc3c(c2)OCO3)c(OC)c1 (stereo not shown) , Emax: 80.7%

Recorded result, COc1cc(OC)c(C(CC(=O)N2CCCC(C)C2)c2ccc3c(c2)OCO3)c(OCc2ccccc2)c1 (stereo not shown) , Emax: 94.1%

Recorded result, O=C(CC(c1ccc2c(c1)OCO2)c1c(O)ccc2ccccc12)N1CCCCC1 (stereo not shown) , Emax: 88.1%

Recorded result, COc1cc(OC)c(C(c2ccccc2)C(C)(C)C(=O)N2CC(C)OC(C)C2)c(OC)c1 (stereo not shown) , Emax: 91.6%

Recorded result, COc1c(C(CC(=O)N2CC(C)CC(C)C2)c2ccc3c(c2)OCO3)c(O)cc2occc12 (stereo not shown) , Emax: 94.5%

Recorded result, COc1cc(O)c([C@H](CC(=O)N2CC(C)CC(C)C2)c2ccc3c(c2)OCO3)c(OC)c1 (stereo partly shown) , Emax: 91%

---

target: RORγt (Mus musculus, UniProt P51450, T352K); assay: RORγt S2 cell Gal4-luciferase reporter assay; details: read-out: Efficacy (%)
OBSERVATION TYPE: Emax (%)
State the answer as a number, implicitly in %.

Recorded result, COc1cc(O)c(C(CC(=O)N2CC(C)CC(C)C2)c2ccc(C(=O)O)cc2)c(OC)c1 (centres unmarked) , Emax: 92.6

Recorded result, COc1cc(O)c(C(CC(=O)N2CC(C)CC(C)C2)c2cccc(OCc3ccccc3)c2)c(OC)c1 (centres unmarked) , Emax: 92.6

Recorded result, COc1ccc(C(CC(=O)N2CCCC(C)C2)c2c(O)cc(OC)cc2OC)cc1 (centres unmarked) , Emax: 91.7

Recorded result, COc1cc(O)c([C@@H](CC(=O)N2CC(C)CC(C)C2)c2ccc3c(c2)OCO3)c(OC)c1 (single isomer, unassigned; (-)) , Emax: 91

Recorded result, COc1cc(O)c(C(CC(=O)N2CC(C)CC(C)C2)c2cccc(OC(C)C)c2)c(OC)c1 (centres unmarked) , Emax: 90.5
